Test system: S. pneumoniae D39V;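 note: first quartile when negative (synergy) and third quartile when positive (antagonism)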
measurement_notes: Bliss interaction score (quartile over a dose matrix) (fitness difference); higher = more antagonism (negative = synergy)
Parameter Bliss interaction score: see the listing below.

{"compound": "CO[C@@]12[C@H](COC(N)=O)C3=C(C(=O)C(C)=C(N)C3=O)N1C[C@@H]1N[C@@H]12 [MitomycinC] + Cc1cc(NS(=O)(=O)c2ccc(N)cc2)no1 [Sulfamethoxazol]", "assay_target": "S. pneumoniae D39V", "Bliss interaction score": -0.0583}
{"compound": "CC[C@H]1OC(=O)[C@H](C)[C@@H](O[C@H]2C[C@@](C)(OC)[C@@H](O)[C@H](C)O2)[C@H](C)[C@@H](O[C@@H]2O[C@H](C)C[C@H](N(C)C)[C@H]2O)[C@](C)(O)C[C@@H](C)C(=O)[C@H](C)[C@@H](O)[C@]1(C)O [Erythromycin] + CCN(CC)CCOC(=O)c1ccc(N)cc1 [Procaine]", "assay_target": "S. pneumoniae D39V", "Bliss interaction score": -0.048}
